B1: TPR t1 (parent)
chain: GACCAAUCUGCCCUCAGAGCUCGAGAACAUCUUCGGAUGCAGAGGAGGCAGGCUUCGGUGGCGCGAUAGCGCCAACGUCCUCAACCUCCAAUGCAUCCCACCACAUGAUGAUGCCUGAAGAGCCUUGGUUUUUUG

# Variants of: B1
# TEST SUMMARY: polymerase ribozyme fitness, log enrichment relative to wild type (log ratio); higher = more active; in vitro selection for triplet polymerase activity
PROPERTY NAME: polymerase ribozyme fitness (log ratio)
Number only, no unit.

Answered examples (5):
C72U C85G ... -2.48
A43C C70A C94U ... -6.65
U59C G127C ... -1.09
G63U G110A ... -1.81
C62A U78C G117A ... -3.04

polymerase ribozyme fitness (log ratio) recorded for this variant, C86U G110U , is -1.02

Per the records, this variant ( G42A U78C ) has polymerase ribozyme fitness (log ratio) equal to -1.87

Record C64U G71U C88U , field polymerase ribozyme fitness (log ratio): -5.13

Noted for C40G G117C : its polymerase ribozyme fitness (log ratio) reads -3.98

Query C12U G47U C73A C86G G122A yields polymerase ribozyme fitness (log ratio) of -0.298

Documented polymerase ribozyme fitness (log ratio) of G47A G69C C101U G122A : -3.07
